Method notes: qHTS assay to identify small molecule antagonists of the peroxisome proliferator-activated receptor delta (PPARd) signaling pathway - cell viability counter screen (AID 743213); note: % is set by controls: 0 for no effect and ±100 for the full control effect; nearly all actives have a fitted effect of over 50% in size
Experimental context: PPARd-bla HEK293H viability, CellTiter-Glo luminescence, 17 h; series mostly up to 62 µM
Results filed as inconclusive are left out. The source made the active and inactive calls. Calls come from the whole dose curve; as a rule, active = well fitted cell-killing curve with a large enough effect in the repeat runs; inconclusive = weak or mixed curves; inactive = no such curve, though single readings can be large or run the other way.
Quantity measured: viability change, negative = cytotoxic

Use the examples below as a reference point.
# Compound, Data value
rows = [
    ("COc1cc2c(cc1OC)[C@@H]1CC(=O)[C@@H](CC(C)C)CN1CC2", "inactive"),
    ("CCCCCOC(=O)CCC", "inactive"),
    ("CCNC(=O)C1CC(C)CCC1C(C)C (stereo not given)", "inactive"),
    ("O=C(NCCc1c[nH]c2ccccc12)c1cccnc1", "inactive"),
    ("CCCCN", "inactive"),
    ("CC(C(=O)O)c1ccc2c(c1)CC(=O)c1ccccc1S2 (stereo not given)", "inactive"),
    ("CC1COc2ccccc2N1 (stereo not given)", "inactive"),
    ("CCCCCCOC(=O)CC", "inactive"),
    ("CC1=C(C(=O)O)N2C(=O)[C@@H](NC(=O)[C@H](N)c3ccc(O)cc3)[C@H]2SC1", "inactive"),
    ("Cc1c(I)c(=O)n(-c2ccccc2)n1C", "inactive"),
]

Record request: viability change, negative = cytotoxic value, item `O=C1c2ccccc2C(=O)N1CCl`
inactive

Give its viability change, negative = cytotoxic value. Item: `CCOC(=O)c1ccc(OC(=O)CCCCCN=C(N)N)cc1`
inactive

Look at this compound and give its reported viability change, negative = cytotoxic. `CCOCCOCCOCC`
inactive

Give its viability change, negative = cytotoxic value. Item: `O=C1O[C@@H]2[C@@H](O)[C@H](O)O[C@@H]2[C@H]1O`
inactive

// lookup viability change, negative = cytotoxic for `Cc1[nH]cnc1-c1ccc(Cl)cc1`
inactive

Looking for the measured viability change, negative = cytotoxic of `CC(C)(C)c1n[nH]c(=S)n(N)c1=O` , can you help?
inactive

Recorded viability change, negative = cytotoxic for `Nc1ccc(S(=O)(=O)Nc2ccc(Cl)nn2)cc1` , please?
inactive

Fill blank: measured viability change, negative = cytotoxic of the compound `CCO[Si](CCCS)(OCC)OCC` is ____.
inactive

Fill in: viability change, negative = cytotoxic of `CCn1ccc(NS(=O)(=O)c2ccc(N)cc2)nc1=O` is ___
inactive

Could you tell me which viability change, negative = cytotoxic is on file for `CCCCNC1CC(C)(C)NC(C)(C)C1` ?
inactive

# get_value(readout='viability change, negative = cytotoxic', item= COCCc1ccc(OCC2CO2)cc1 (stereo not given) )
inactive

If you can, please state the reported viability change, negative = cytotoxic value of CCC(C)(CCC(C)C)C(=O)O (stereo not given) .
inactive

Please give the measured viability change, negative = cytotoxic for this compound: `CC1=CCC(C(C)C)=CC1`
inactive

Looking for the measured viability change, negative = cytotoxic of `CC/C=C\CC1=C(C)CCC1=O` , can you help?
inactive

What value of viability change, negative = cytotoxic has been recorded for this entry: `CNS(=O)(=O)CCc1ccc2[nH]cc(C3CCN(C)CC3)c2c1`
inactive

###

Method notes: qHTS assay to test for compound auto fluorescence at 535 nm (green) in HepG2 cells (AID 720675); note: % is set by controls: 0 for no effect and ±100 for the full control effect
Experimental context: green autofluorescence 485/535 nm, 1 h; series mostly up to 91.3 µM
Activity calls are given as the source filed them. The call rests on the fitted dose curve; in most records, active means well fitted curve in the direction sought with a large enough effect in the repeat runs; inconclusive means weak or mixed curves; inactive means flat fitted curve, though single readings scatter.
Quantity measured: fluorescence, % of fluorescein control

Below are worked cases with known answers.
# Compound, fluorescence, % of fluorescein control
data = [
    ("O=C(O)c1ccc(Cl)cc1Cl", "inactive"),
    ("CC1COc2ccccc2N1 (stereo unspecified)", "inactive"),
    ("CCOc1cc([N+](=O)[O-])c(OCC)cc1N1CCOCC1", "inactive"),
    ("O=C1c2ccccc2C(=O)C1c1ccccc1", "0.0928% [at 18.6 µM] (inactive)"),
]

# input compound: CC(CN)CC(C)(C)CCN (stereo unspecified) ; wanted: its fluorescence, % of fluorescein control
inactive

###

Experimental target: Nuclear receptor subfamily 1 group I member 2 (Homo sapiens) (UniProt O75469)
Sequence (O75469 whole entry, looked up): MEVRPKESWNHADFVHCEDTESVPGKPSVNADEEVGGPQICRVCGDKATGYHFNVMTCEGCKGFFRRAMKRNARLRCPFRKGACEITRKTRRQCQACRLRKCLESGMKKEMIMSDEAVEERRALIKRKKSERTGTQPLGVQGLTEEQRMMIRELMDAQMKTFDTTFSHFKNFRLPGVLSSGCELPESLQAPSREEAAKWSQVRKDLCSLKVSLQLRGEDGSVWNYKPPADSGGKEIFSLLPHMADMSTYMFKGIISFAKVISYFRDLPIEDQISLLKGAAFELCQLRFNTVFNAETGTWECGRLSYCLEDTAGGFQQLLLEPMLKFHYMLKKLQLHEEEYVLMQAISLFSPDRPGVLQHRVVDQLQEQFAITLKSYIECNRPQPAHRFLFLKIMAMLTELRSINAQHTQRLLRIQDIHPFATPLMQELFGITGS
Method notes: Human pregnane X receptor (PXR) small molecule agonists, qHTS assay (AID 1346982); note: nearly all actives have a fitted effect of over 35% in size; for activation: % is set by controls: 0 for no effect and ±100 for the full control effect
Experimental context: PXR-Luc HepG2, CYP3A4 luciferase reporter, 24 h; series mostly up to 92.4 µM
Inconclusive results are not listed. Active and inactive are the calls of the source. Calls come from the whole dose curve; as a rule, active = well fitted activation curve with a large enough effect in the repeat runs; inconclusive = weak or mixed curves; inactive = no such curve, though single readings can be large or run the other way.
The reply should be one of these categories: YES (active), NO (inactive)

Look up the recorded call for `CC(C)N(c1ccccc1)C(C)C` in this test.
NO

State the result this test recorded for `CCOC(=O)[C@H](CCc1ccccc1)N[C@@H](C)C(=O)N1C(=O)N(C)C[C@H]1C(=O)O` .
NO

Entry `Nc1ccc2cc(S(=O)(=O)O)cc(O)c2c1` : call = ?
YES

Can you look up the reported call for `CCN1CCc2nc(N)oc2CC1` for me?
NO

Which outcome did this test record for the compound `O=C(NCCc1c[nH]c2ccccc12)c1cccnc1` ?
YES

Please share the test call associated with `CCCN1C[C@H](CSC)C[C@@H]2c3cccc4[nH]cc(c34)C[C@H]21` .
NO

How did this test come out for `O=C(c1ccc(O)cc1)c1ccc(O)c(O)c1O` ?
YES

Look up the recorded call for `CCc1ccc(C=O)cc1` in this test.
NO

Outcome logged for CC(N)C(=O)OC(C)(C)Cc1ccc(Cl)cc1 (centres undefined) in this assay:
NO

Which outcome did this test record for the compound CC(CC=O)CCCC(C)(C)O (centres undefined) ?
NO

So what was the verdict on `N#Cc1ccc(C(=O)O)cc1` in this test?
NO

Assay outcome for `CC(C)CCCCOC(=O)c1ccccc1C(=O)OCCCCC(C)C` : what was it?
NO

What did this assay record as the result for `CCCCN` ?
NO

Could you kindly confirm the outcome this assay logged for `COc1ccc2c(c1OC)C(=O)O[C@@H]2[C@H]1c2c(cc3c(c2OC)OCO3)CCN1C` ?
YES

Identify the outcome logged in this assay for the compound shown: `CC(=O)Nc1cccc(C)c1`
NO

What was the test verdict on `COc1cc(C(=S)N2CCOCC2)cc(OC)c1OC` ?
NO

Per the assay record, what outcome was assigned to `CCCCCCCCSCC` ?
NO

Could you kindly confirm the outcome this assay logged for `Nc1ncnc(Nc2ccccc2)n1` ?
NO

// return assay outcome for `CN(C)c1ccc(C=O)cc1`
NO

Give the logged outcome of this assay for the following compound: `FC(F)(F)c1ccccc1-n1ccnc1`
NO

Identify the outcome logged in this assay for the compound shown: `O=C(O)C(=O)Cc1ccccc1`
NO

Hey, what did the test say about `O=C(O)Cc1cn(-c2ccccc2)nc1-c1ccc(Cl)cc1` ?
NO

GET /call?item= `Cc1c(I)c(=O)n(-c2ccccc2)n1C` returns the recorded outcome of this test.
NO

Hi team, can someone confirm the assay call for `C=C(C)C(=O)OCCOP(=O)(O)OCCOC(=O)C(=C)C` ?
NO

Which result was noted for this compound in the test: `CCC(CC)CO`
NO

How was CC1(CO)CN(c2ccccc2)NC1=O (centres undefined) classified in this test?
YES

// return assay outcome for `O=C1c2ccccc2C(=O)N1CCl`
NO

Could you kindly confirm the outcome this assay logged for `CC1(C)S[C@@H]2[C@H](N=CN3CCCCCC3)C(=O)N2[C@H]1C(=O)O` ?
NO

Would you mind telling me which call this test gave Cc1cccc(C)c1OCC(C)N (centres undefined) ?
NO

###

Method notes: qHTS assay for small molecules that induce genotoxicity in human embryonic kidney cells expressing luciferase-tagged ATAD5 (AID 651632); note: % is set by controls: 0 for no effect and ±100 for the full control effect; nearly all actives have a fitted effect of over 15% in size
Experimental context: HEK293T ATAD5-luciferase induction, 16 h; series mostly up to 83.3 µM
Inconclusive results are not listed. Activity calls are given as the source filed them. Calls follow the shape of the dose curve; as a rule, active = well fitted activation curve with a large enough effect in the repeat runs; inconclusive = weak or mixed curves; inactive = no such curve, though single readings can be large or run the other way.
Quantity measured: outcome

Known outcome results, listed for orientation:
# Compound, outcome
measured = [
    ("CCCOC(OCCC)OCCC", "inactive"),
    ("O=C(O)c1cc(Cl)cc([N+](=O)[O-])c1Cl", "inactive"),
    ("CC(C)(C)c1n[nH]c(=S)n(N)c1=O", "inactive"),
    ("CO[C@@H]1[C@@H](OC(N)=O)[C@@H](O)[C@H](Oc2ccc3c(O)c(NC(=O)c4ccc(O)c(CC=C(C)C)c4)c(=O)oc3c2C)OC1(C)C", "inactive"),
    ("COc1cc(C(=S)N2CCOCC2)cc(OC)c1OC", "inactive"),
]

Name the reported outcome value associated with the compound `Cc1nc2n(c(=O)c1CCN1CCC(c3noc4cc(F)ccc34)CC1)CCC[C@H]2O`
inactive

Please report the recorded outcome for `CC(C)(C)c1cc(CCC(=O)NN)cc(C(C)(C)C)c1O` .
inactive

Would you mind telling me what outcome value was observed for `COc1ccc(OC)c(Cl)c1` ?
inactive

Tell me the measured outcome of `CCCCCCCCCCCCCC` , please.
inactive

Report outcome for COC(=O)CCc1ccc(OCC(O)CNC(C)C)cc1 (stereo unspecified) please.
inactive

What does the record list as outcome for `CC(C)(C)OC(=O)c1ccc(O)cc1` ?
inactive

Quick one: outcome of `BrCCCCCBr` ?
inactive

Reported outcome for `CC(C)(C)NC(N)=O` : what is it?
inactive

Look up outcome: `CCOC(=O)c1ncn2c1CN(C)C(=O)c1cc(F)ccc1-2`
inactive

Item `CCN(C)C(=O)Oc1cccc([C@H](C)N(C)C)c1` has what recorded outcome?
inactive

What value of outcome has been recorded for this entry: `COc1nccnc1NS(=O)(=O)c1ccc(N)cc1`
inactive

Returns the measured outcome for the input compound. Input: `O=C(/N=N/C(=O)OCc1ccccc1)OCc1ccccc1`
inactive

Query: outcome; subject: `O=C(NCCc1c[nH]c2ccccc12)c1cccnc1`
inactive

Item under review: CC(S)C(=O)NCC(=O)O (stereo unspecified) . Reported outcome?
inactive

Data provenance is PubChem BioAssay (Tox21).
